Target: BaF3-Tel-FGFR4 cells (TEL fused to cytoplasmic domain of FGFR4) (Homo sapiens, UniProt P22455)
Sequence (P22455 with tags, fused parts or gaps): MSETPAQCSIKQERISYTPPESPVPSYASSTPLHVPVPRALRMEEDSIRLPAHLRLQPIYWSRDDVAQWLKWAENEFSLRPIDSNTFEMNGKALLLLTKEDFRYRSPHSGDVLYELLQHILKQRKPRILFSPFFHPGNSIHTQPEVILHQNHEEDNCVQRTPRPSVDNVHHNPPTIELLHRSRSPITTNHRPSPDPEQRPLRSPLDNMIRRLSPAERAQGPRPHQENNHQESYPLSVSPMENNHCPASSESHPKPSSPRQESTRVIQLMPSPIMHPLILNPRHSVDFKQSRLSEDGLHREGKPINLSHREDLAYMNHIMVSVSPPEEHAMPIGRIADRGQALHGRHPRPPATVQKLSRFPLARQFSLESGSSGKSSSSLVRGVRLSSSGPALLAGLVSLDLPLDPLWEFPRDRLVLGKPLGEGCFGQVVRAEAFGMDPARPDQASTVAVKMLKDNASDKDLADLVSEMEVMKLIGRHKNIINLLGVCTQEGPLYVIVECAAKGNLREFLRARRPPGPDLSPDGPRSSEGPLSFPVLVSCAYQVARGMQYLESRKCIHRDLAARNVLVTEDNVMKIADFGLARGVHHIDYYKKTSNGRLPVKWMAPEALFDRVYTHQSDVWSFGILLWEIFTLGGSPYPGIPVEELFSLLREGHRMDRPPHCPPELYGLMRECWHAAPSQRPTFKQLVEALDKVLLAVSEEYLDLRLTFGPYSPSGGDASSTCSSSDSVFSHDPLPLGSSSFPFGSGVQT
Assay: In vitro cellular kinase assay for FGFR4 (BaF3-Tel-FGFR4, MSD capture ELISA of tyrosine phosphorylation)
Conditions: 1 hour incubation
Outcome measure: pIC50
The read-out pIC50 is expressed as -log10 of concentration in moles per litre.

{"Molecule": "CC(C)Oc1cc(NC(=O)N(C)c2ccc(CN3CCN(C)CC3)c(C=O)n2)ncc1C#N [Example 17]", "pIC50": 6.84}
{"Molecule": "COCCNc1cc(NC(=O)N(C)c2ccc(CN(C)C(C)=O)c(C=O)n2)ncc1C#N [Example 15]", "pIC50": 8.32}
{"Molecule": "CC(C)Oc1cc(NC(=O)N(C)c2ccc(CN3CCN(C)CC3=O)c(C=O)n2)ncc1C#N [Example 21]", "pIC50": 8.16}
{"Molecule": "COCCNc1cc(NC(=O)N(C[C@@H]2CCOC2)c2cccc(C=O)n2)ncc1C#N (single isomer, unassigned) [Example 6]", "pIC50": 6.85}
{"Molecule": "COCCNc1cc(NC(=O)N(C)c2ccc(CN3CCCC3=O)c(C=O)n2)ncc1C#N [Example 20]", "pIC50": 8.28}

Entry under test: COCCNc1cc(NC(=O)N(C)c2ccc(C(=O)O)c(C=O)n2)ncc1C#N [Example 9] . Its pIC50 was 5.90

Entry under test: CC(C)Oc1cc(NC(=O)Nc2nccc(C=O)n2)ncc1C#N [Example 30] . Its pIC50 was 6.01
